- System: Jurkat cells
- procedure.details: Sirolimus (rapamycin) dose response of FKBP13 constructs stably transduced into Jurkat cells, flow cytometry
- Format: cell-based
- condition: rapamycin; Table 14; read-out: Rapamycin EC90
Recorded EC90 values for a group of molecules are listed next.

Field: example entries. Status: answers known.
[
  {
    "molecule": "FKBP-170 (protein, Description of sequence: Construct Name: FKBP-170; Mutation(s): Q72R T82W Q84E A117W DRD M54A V85R) HCPIKSRKGDVLHAHYTGKLEDGTEFDSSLPRNQPFVFSLGWGERIKGWDQGLLGMCEGEKRKLVIPSELGYGERGWPPKIPGGATLVFEVELLKIER",
    "observed": "0.785 µM"
  },
  {
    "molecule": "FKBP-181 (protein, Description of sequence: Construct Name: FKBP-181; Mutation(s): Q72R Q84E A117W V85R DRD M54A D50L) HCPIKSRKGLVLHAHYTGKLEDGTEFDSSLPRNQPFVFSLGTGERIKGWDQGLLGMCEGEKRKLVIPSELGYGERGWPPKIPGGATLVFEVELLKIER",
    "observed": "11.8 µM"
  }
]

Entry under review: FKBP-169 (protein, Description of sequence: Construct Name: FKBP-169; Mutation(s): Q72R T82W Q84E A117W DRD M54A) HCPIKSRKGDVLHAHYTGKLEDGTEFDSSLPRNQPFVFSLGWGEVIKGWDQGLLGMCEGEKRKLVIPSELGYGERGWPPKIPGGATLVFEVELLKIER . Reported EC90?
1.39 µM
